Data origin: patent US20240067651A1

experiment-notes: Stability in Simulated Gastric Fluid (SGF)
Format: in vitro ADME
Design: key: % parent compound remaining relative to 0-minute sample
stated-conditions: simulated gastric fluid, at 1 h
assay-metric: SGF (% remaining)

Please review the entries below; each comes with its answer.
INSERT INTO assay_data (molecule, assay_metric, value) VALUES
  ('Cc1cccc(N(C)C(=O)OCSc2nc(=O)c3c(ccn3COC(=O)N(C)c3cccc(C)c3)n2CCOC(C)C)c1', 'SGF', 98),
  ('Cc1cccc(N(C)C(=O)OCSc2nc(=O)c3[nH]ccc3n2CCOC(C)C)c1', 'SGF', 99),
  ('Cc1ccccc1N(C)C(=O)OCSc1nc(=O)c2[nH]ccc2n1CCOC(C)C', 'SGF', 52),
  ('CC(C)COC(=O)n1ccc2c1c(=O)[nH]c(=S)n2CCOC(C)C', 'SGF', 98),
  ('Cc1ccc(OC(=O)OCn2ccc3c2c(=O)[nH]c(=S)n3CCOC(C)C)cc1', 'SGF', 53);

a: Cc1cccc(OC(=O)OCn2ccc3c2c(=O)[nH]c(=S)n3CCOC(C)C)c1
b: CC(C)OCCn1c(=S)[nH]c(=O)c2c1ccn2COC(=O)Oc1ccccc1F
c: CC(C)OCCn1c(=S)[nH]c(=O)c2c1ccn2COC(=O)Oc1cccc(F)c1
Q) Order each entry by recorded SGF, climbing from the minimum. Your answer should be the labels, listed in the requested order.
A) b, c, a
(b: 13 % remaining, c: 34 % remaining, a: 74 % remaining)

A: CC(C)OCCn1c(=S)[nH]c(=O)c2c1ccn2COC(=O)Oc1ccc(F)cc1
B: CC(C)OCCn1c(SCOC(=O)N(C)c2ccccc2Cl)nc(=O)c2[nH]ccc21
Q) Smaller SGF value, A vs B ? Please reply using the label of the selected record.
A) A
(A: 60 % remaining, B: 99 % remaining)

====

experiment-notes: Stability in Simulated Intestinal Fluid (SIF)
Format: in vitro ADME
stated-conditions: % remaining at 1 h in simulated intestinal fluid
Consider the following compounds and their measured SIF readings.
Express your answer in % remaining, writing the number without its unit.

Q) Return SIF (reported value) for this compound: CSCC[C@H](N)C(=O)NCCC(=O)OCn1ccc2c1c(=O)[nH]c(=S)n2CCOC(C)C.O=C(O)C(F)(F)F
A) 33

Q) Return SIF (reported value) for this compound: CC(C)OCCn1c(=S)[nH]c(=O)c2c1ccn2COC(=O)CCCCNC(=O)C1CCCN1C(=O)OC(C)C.O=C(O)C(F)(F)F (stereo not drawn)
A) 93

Q) Return SIF (reported value) for this compound: CC(C)OCCn1c(=S)[nH]c(=O)c2c1ccn2COC(=O)CCNC(=O)[C@H](Cc1ccccc1)NC(=O)OCC1c2ccccc2-c2ccccc21.O=C(O)C(F)(F)F
A) 84

Q) Return SIF (reported value) for this compound: CC(C)C[C@H](N)C(=O)NCCC(=O)OCn1ccc2c1c(=O)[nH]c(=S)n2CCOC(C)C.O=C(O)C(F)(F)F
A) 67

Q) Return SIF (reported value) for this compound: CC(C)OCCn1c(=S)[nH]c(=O)c2c1ccn2COC(=O)CCCCNC(=O)[C@@H](NC(=O)OC(C)(C)C)[C@@H](C)O.O=C(O)C(F)(F)F
A) 99

Q) Return SIF (reported value) for this compound: CC(C)OCCn1c(=S)[nH]c(=O)c2c1ccn2COC(=O)CCCCNC(=O)CN(C)C(=O)CN.O=C(O)C(F)(F)F
A) 98

====

experiment-notes: Plasma Stability
Type: in vitro ADME, human
stated-conditions: % @ 1 h (remaining) in human plasma
assay-metric: human Plasma stability (% @ 1 h)

Please review the entries below; each comes with its answer.
INSERT INTO measurements (smi, value) VALUES
  ('CC(C)OCCn1c(SCOC(=O)N(C)Cc2ccccc2)nc(=O)c2c1ccn2COC(=O)N(C)Cc1ccccc1.O=C(O)C(F)(F)F', 99),
  ('CC(C)OCCn1c(SCOC(=O)N(C)CCc2ccccc2)nc(=O)c2[nH]ccc21.O=C(O)C(F)(F)F', 95);

I: CC(C)OCCn1c(SCOC(=O)N(C)C)nc(=O)c2c1ccn2COC(=O)N(C)C
II: CCCC(=O)OCSc1nc(=O)c2c(ccn2COC(=O)CCC)n1CCOC(C)C
Q) Which item exceeds the other in human Plasma stability, I or II ? Please reply using the label of the selected record.
A) I
(I: 97 % @ 1 h, II: 1 % @ 1 h)

====

experiment-notes: Plasma Stability
Format: in vitro ADME, human
stated-conditions: human plasma, at 1 h
assay-metric: human Plasma stability (% remaining)

Please review the entries below; each comes with its answer.
INSERT INTO results (compound, assay_metric, value) VALUES
  ('COc1ccc(N(C)C(=O)OCSc2nc(=O)c3[nH]ccc3n2CCOC(C)C)cc1 [Example 254]', 'human Plasma stability', 88),
  ('CC(C)OCCn1c(SCOC(=O)N(C)c2ccccc2Cl)nc(=O)c2c1ccn2COC(=O)N(C)c1ccccc1Cl', 'human Plasma stability', 98),
  ('CC(C)OCCn1c(=S)[nH]c(=O)c2c1ccn2COC(=O)Oc1cccc(F)c1', 'human Plasma stability', 2);

1: Cc1cccc(N(C)C(=O)OCn2ccc3c2c(=O)[nH]c(=S)n3CCOC(C)C)c1
2: CC(C)OCCn1c(=S)[nH]c(=O)c2c1ccn2COC(=O)Oc1ccc(F)cc1
3: Cc1ccccc1N(C)C(=O)OCn1c(=O)c2c(ccn2COC(=O)N(C)c2ccccc2C)n(CCOC(C)C)c1=S
4: Cc1cccc(N(C)C(=O)OCn2c(=O)c3c(ccn3COC(=O)N(C)c3cccc(C)c3)n(CCOC(C)C)c2=S)c1
Q) Please give the order of these compounds when sorted by human Plasma stability, largest value leading. Your answer should be the labels, listed in the requested order.
A) 1, 3, 4, 2

====

experiment-notes: Stability in Simulated Gastric Fluid (SGF)
Assay type: in vitro ADME
Set-up: key: % parent compound remaining relative to 0-minute sample
stated-conditions: % @ 1 h (remaining) in simulated gastric fluid
assay-metric: SGF (% @ 1 h)
Express your answer in % @ 1 h, writing the number without its unit.

INSERT INTO results (smi, units, value) VALUES
  ('CC(C)OCCn1c(SCOC(=O)N(C)C(C)C)nc(=O)c2c1ccn2COC(=O)N(C)C(C)C.O=C(O)C(F)(F)F', '% @ 1 h', 100),
  ('CC(C)OCCn1c(SCOC(=O)N(C)C)nc(=O)c2c1ccn2COC(=O)N(C)C', '% @ 1 h', 84),
  ('CC(C)OCCn1c(SCOC(=O)N(C)C(C)C)nc(=O)c2[nH]ccc21.O=C(O)C(F)(F)F', '% @ 1 h', 99);

Now look at this entry.
Q) Return SGF (reported value) for this compound: CC(C)OCCn1c(SCOC(=O)N(C)C(C)(C)C)nc(=O)c2[nH]ccc21.O=C(O)C(F)(F)F
A) 99

====

experiment-notes: Stability in Simulated Gastric Fluid (SGF)
Assay type: in vitro ADME
Set-up: key: % parent compound remaining relative to 0-minute sample
stated-conditions: % remaining @ 1 h
assay-metric: SGF (% @ 1 h)

Please review the entries below; each comes with its answer.
INSERT INTO results (compound, assay_metric, units, value) VALUES
  ('CC(C)OCCn1c(SCOC(=O)CCCCOC(=O)CNC(=O)OC(C)(C)C)nc(=O)c2c1ccn2COC(=O)CCCCOC(=O)CNC(=O)OC(C)(C)C [Example 329]', 'SGF', '% @ 1 h', 95),
  ('CC(C)OCCn1c(SCOC(=O)[C@@H](Cc2ccccc2)NC(=O)OC(C)(C)C)nc(=O)c2c1ccn2COC(=O)[C@@H](Cc1ccccc1)NC(=O)OC(C)(C)C [Example 306]', 'SGF', '% @ 1 h', 41),
  ('CC(C)OCCn1c(=S)n(COC(=O)[C@@H](C)N)c(=O)c2c1ccn2COC(=O)[C@@H](C)N.O=C(O)C(F)(F)F.O=C(O)C(F)(F)F [Example 293]', 'SGF', '% @ 1 h', 100),
  ('CC(C)OCCn1c(SCOC(=O)CCCCOC(=O)CN)nc(=O)c2c1ccn2COC(=O)CCCCOC(=O)CN.O=C(O)C(F)(F)F.O=C(O)C(F)(F)F [Example 331]', 'SGF', '% @ 1 h', 93),
  ('CC(C)OCCn1c(=S)n(COC(=O)[C@H](N)Cc2ccccc2)c(=O)c2c1ccn2COC(=O)[C@H](N)Cc1ccccc1.O=C(O)C(F)(F)F.O=C(O)C(F)(F)F [Example 313]', 'SGF', '% @ 1 h', 88),
  ('CC(C)OCCn1c(=S)[nH]c(=O)c2c1ccn2COC(=O)[C@@H](N)Cc1ccccc1.O=C(O)C(F)(F)F [Example 308]', 'SGF', '% @ 1 h', 97),
  ('CC(C)OCCn1c(=S)[nH]c(=O)c2c1ccn2COC(=O)[C@H](N)Cc1ccccc1.O=C(O)C(F)(F)F [Example 311]', 'SGF', '% @ 1 h', 98),
  ('CC(C)OCCn1c(=S)[nH]c(=O)c2c1ccn2COC(=O)CCCCOC(=O)[C@@H](NC(=O)OC(C)(C)C)C(C)C [Example 333]', 'SGF', '% @ 1 h', 98);

P: CC(C)OCCn1c(=S)n(COC(=O)[C@@H](Cc2ccccc2)NC(=O)OC(C)(C)C)c(=O)c2c1ccn2COC(=O)[C@@H](Cc1ccccc1)NC(=O)OC(C)(C)C [Example 307]
Q: CC(C)OCCn1c(SCOC(=O)[C@H](NC(=O)OC(C)(C)C)C(C)C)nc(=O)c2c1ccn2COC(=O)[C@H](NC(=O)OC(C)(C)C)C(C)C [Example 299]
Q) Smaller SGF value, P vs Q ? Please reply using the label of the selected record.
A) P
